- System: K98450-129-R-PDC complex spheroid growth, percent test/control
- assay-remarks: Anticancer human tumor K98450-129-R-PDC patient-derived colon adenocarcinoma cell line growth inhibition [RAS]
- particulars: second compound 0.0316 µM; first compound 0.0949 µM; stronger effect = lower value
measured-endpoint: viability, T/C (%)
The response must be a number in % with no trailing unit.

**Query** Using the record for CCc1c2c(nc3ccc(O)cc13)-c1cc3c(c(=O)n1C2)COC(=O)[C@]3(O)CC + C#Cc1c(F)ccc2cc(O)cc(-c3ncc4c(N5CC6CCC(C5)N6)nc(OCC56CCCN5CC(F)C6)nc4c3F)c12 , report its viability, T/C.
**Result** 43.3

**Query** Using the record for CCc1c2c(nc3ccc(O)cc13)-c1cc3c(c(=O)n1C2)COC(=O)[C@]3(O)CC + C=CC(=O)N1CCN(c2nc(OCC3CCCN3C)nc3c(F)c(-c4nc(N)cc(C)c4C(F)(F)F)c(Cl)cc23)C(C)C1 , report its viability, T/C.
**Result** 20.6

**Query** Using the record for CC1(C)CCC(Nc2ncc(C(F)(F)F)c(-c3c[nH]c4c(P(C)(C)=O)c(C#N)ccc34)n2)CN1 (centres undefined) + C=CC(=O)N1CCN(c2nc(OCC3CCCN3C)nc3c(F)c(-c4nc(N)cc(C)c4C(F)(F)F)c(Cl)cc23)C(C)C1 , report its viability, T/C.
**Result** 58.5

**Query** Using the record for CC1(C)CCC(Nc2ncc(C(F)(F)F)c(-c3c[nH]c4c(P(C)(C)=O)c(C#N)ccc34)n2)CN1 (centres undefined) + C#Cc1c(F)ccc2cc(O)cc(-c3ncc4c(N5CC6CCC(C5)N6)nc(OCC56CCCN5CC(F)C6)nc4c3F)c12 , report its viability, T/C.
**Result** 88.5

----------
- System: K98450-129-R-PDC complex spheroid growth, percent test/control
- assay-remarks: Anticancer human tumor K98450-129-R-PDC cell line growth inhibition [RAS];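 note: luminescence used as a proxy for viable cell amount; spheroids exposed to agents for seven days before the viability readout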
- particulars: compound 0.00316 µM; stronger effect = lower value
Assignment: determine reported viability, T/C for the given compounds.

**Query** Using the record for "O=C(c1ccc(F)c(F)c1Nc1ccc(I)cc1F)N1CC(O)([C@@H]2CCCCN2)C1" , report its viability, T/C.
**Result** 103% [middle of 4 runs]

**Query** Using the record for C=CC(=O)N1CCN(c2nc(OCC3CCCN3C)nc3c(F)c(-c4nc(N)cc(C)c4C(F)(F)F)c(Cl)cc23)C(C)C1 (centres undefined) , report its viability, T/C.
**Result** 97.9% [middle of 12 runs]

**Query** Using the record for "CC(C)n1nc(-c2ccc3oc(N)nc3c2)c2c(N)ncnc21" , report its viability, T/C.
**Result** 93.6% [middle of 4 runs]

**Query** Using the record for "CCN1CCN(Cc2ccc(Nc3ncc(F)c(-c4cc(F)c5nc(C)n(C(C)C)c5c4)n3)nc2)CC1" , report its viability, T/C.
**Result** 103% [middle of 4 runs]

----------
Assignment: determine reported viability, T/C for the given compounds.
- System: K98450-129-R-PDC complex spheroid growth, percent test/control
- assay-remarks: Anticancer human tumor K98450-129-R-PDC cell line growth inhibition [RAS];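 note: luminescence used as a proxy for viable cell amount; spheroids exposed to agents for seven days before the viability readout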
- particulars: second compound 0.0949 µM; first compound 0.0316 µM; stronger effect = lower value
The response must be a number in % with no trailing unit.

**Query** Using the record for CC1(O)CCCC1n1c(=O)c(C(F)F)cc2cnc(NC3CCN(S(C)(=O)=O)CC3)nc21 (configuration not stated) + CCn1c(-c2cc(N3CCN(C)CC3)cnc2C(C)OC)c2c3cc(ccc31)-c1csc(n1)CC(NC(=O)C1CC1C)C(=O)N1CCCC(N1)C(=O)OCC(C)(C)C2 , report its viability, T/C.
**Result** 22.6

**Query** Using the record for CCC(CC)c1cc(NC2CCC(N)C2)n2nccc2n1 (configuration not stated) + CCn1c(-c2cc(N3CCN(C)CC3)cnc2C(C)OC)c2c3cc(ccc31)-c1csc(n1)CC(NC(=O)C1CC1C)C(=O)N1CCCC(N1)C(=O)OCC(C)(C)C2 , report its viability, T/C.
**Result** 23.2

Cited source for all entries: PubChem BioAssay AID2060891
